Reference source for all entries: patent US20090312396A1

I'd appreciate it if you could supply GI50 values for the items below.
tested on: HEL92.1.7; assay: AlamarBlue proliferation assay, GI50; format: cell-based; conditions: Homo sapiens, HEL 92.1.7, 72 hours, Table 4, read-out: GI50 HEL92.1.7 Erythroleukemia
One number for each entry, in nM.

Please review the following examples before continuing.
                                   molecule  value
0  NC(=O)Nc1cc(-c2ccc(CN3CCOCC3)cc2)sc1C(N)=O [Compound 3]    500
1  CC(c1ccc(-c2cc(C(N)=O)c(NC(N)=O)s2)cc1)N1CCCCC1 (stereo not shown) [Compound 2]    170
2  COC(C)(C)CNCc1ccc(-c2cc(NC(N)=O)c(C(N)=O)s2)cc1 [Compound 4]   1470

Please find the next molecule below.
Field GI50 (entry NC(=O)Nc1sc(-c2ccc(CN3CCOCC3)cc2)cc1C(N)=O [Compound 1] ) reads 730

---

I'd appreciate it if you could supply GI50 values for the items below.
system: SUDHL4; experiment: AlamarBlue proliferation assay, GI50; format: cell-based; conditions: Homo sapiens, SU-DHL-4, 72 hours, Table 4, read-out: GI50 SUDHL4 DLBCL
Give bare numbers, in µM.

Please review the following examples before continuing.
In [3]: df
Out[3]:
                                   molecule  measurement_units  value
0  CC(c1ccc(-c2cc(C(N)=O)c(NC(N)=O)s2)cc1)N1CCCCC1 (stereo not shown) [Compound 2]                 µM   2.42
1  COC(C)(C)CNCc1ccc(-c2cc(NC(N)=O)c(C(N)=O)s2)cc1 [Compound 4]                 µM   3.08
2  NC(=O)Nc1cc(-c2ccc(CN3CCOCC3)cc2)sc1C(N)=O [Compound 3]                 µM   2.72

Please find the next molecule below.
Measured GI50 (SUDHL4), entry NC(=O)Nc1sc(-c2ccc(CN3CCOCC3)cc2)cc1C(N)=O [Compound 1] : 6.39

---

I'd appreciate it if you could supply GI50 values for the items below.
test system: KG1a; test: AlamarBlue proliferation assay, GI50; assay type: cell-based; conditions: Homo sapiens, KG-1a, 72 hours, Table 4, read-out: GI50 KG1a AML
One number for each entry, in nM.

                                   compound  test_system  value_type  measurement_units  value
0  NC(=O)Nc1sc(-c2ccc(CN3CCOCC3)cc2)cc1C(N)=O         KG1a        GI50                 nM    450
1  COC(C)(C)CNCc1ccc(-c2cc(NC(N)=O)c(C(N)=O)s2)cc1         KG1a        GI50                 nM   1090
2  NC(=O)Nc1cc(-c2ccc(CN3CCOCC3)cc2)sc1C(N)=O         KG1a        GI50                 nM    430

Please find the next compound below.
Field GI50 (entry CC(c1ccc(-c2cc(C(N)=O)c(NC(N)=O)s2)cc1)N1CCCCC1 (stereo not shown) ) reads 400

---

tested on: ARH77; assay: AlamarBlue proliferation assay, GI50; format: cell-based; conditions: Homo sapiens, ARH-77, 72 hours, Table 4, read-out: GI50 ARH77 Plasma cell leukemia
VALUE TYPE: GI50

Please review the following examples before continuing.
>>> print(df.to_string())
                                   compound  test_system  value_type    value
0  NC(=O)Nc1sc(-c2ccc(CN3CCOCC3)cc2)cc1C(N)=O [Compound 1]        ARH77        GI50  1170 nM
1  CC(c1ccc(-c2cc(C(N)=O)c(NC(N)=O)s2)cc1)N1CCCCC1 (stereo not shown) [Compound 2]        ARH77        GI50   250 nM
2  COC(C)(C)CNCc1ccc(-c2cc(NC(N)=O)c(C(N)=O)s2)cc1 [Compound 4]        ARH77        GI50  3720 nM

Please find the next compound below.
Field GI50 (entry NC(=O)Nc1cc(-c2ccc(CN3CCOCC3)cc2)sc1C(N)=O [Compound 3] ) reads 480 nM

---

biological target: TAK1 (Homo sapiens, UniProt O43318); assay: TAK1 enzyme inhibition; type: biochemical; details: Table 4; read-out: TAK1 pIC50 (enzyme) (converted)
Sequence (O43318 whole entry): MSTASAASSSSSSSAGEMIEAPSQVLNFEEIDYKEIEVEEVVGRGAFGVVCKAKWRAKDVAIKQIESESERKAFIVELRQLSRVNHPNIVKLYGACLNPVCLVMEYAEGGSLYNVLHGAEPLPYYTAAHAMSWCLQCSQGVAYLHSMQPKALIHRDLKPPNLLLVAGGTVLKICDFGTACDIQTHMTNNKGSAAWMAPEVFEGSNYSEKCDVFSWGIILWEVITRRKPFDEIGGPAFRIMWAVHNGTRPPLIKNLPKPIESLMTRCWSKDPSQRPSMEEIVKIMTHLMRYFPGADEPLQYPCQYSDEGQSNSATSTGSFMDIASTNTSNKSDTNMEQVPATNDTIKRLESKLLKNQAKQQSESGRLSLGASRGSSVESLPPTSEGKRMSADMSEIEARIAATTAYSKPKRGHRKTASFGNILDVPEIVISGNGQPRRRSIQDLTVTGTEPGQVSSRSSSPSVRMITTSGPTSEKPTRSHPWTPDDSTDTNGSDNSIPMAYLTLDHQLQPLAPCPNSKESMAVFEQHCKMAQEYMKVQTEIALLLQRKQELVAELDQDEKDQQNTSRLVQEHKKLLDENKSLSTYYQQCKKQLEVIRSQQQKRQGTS
Sequence (Q15750 whole entry partner): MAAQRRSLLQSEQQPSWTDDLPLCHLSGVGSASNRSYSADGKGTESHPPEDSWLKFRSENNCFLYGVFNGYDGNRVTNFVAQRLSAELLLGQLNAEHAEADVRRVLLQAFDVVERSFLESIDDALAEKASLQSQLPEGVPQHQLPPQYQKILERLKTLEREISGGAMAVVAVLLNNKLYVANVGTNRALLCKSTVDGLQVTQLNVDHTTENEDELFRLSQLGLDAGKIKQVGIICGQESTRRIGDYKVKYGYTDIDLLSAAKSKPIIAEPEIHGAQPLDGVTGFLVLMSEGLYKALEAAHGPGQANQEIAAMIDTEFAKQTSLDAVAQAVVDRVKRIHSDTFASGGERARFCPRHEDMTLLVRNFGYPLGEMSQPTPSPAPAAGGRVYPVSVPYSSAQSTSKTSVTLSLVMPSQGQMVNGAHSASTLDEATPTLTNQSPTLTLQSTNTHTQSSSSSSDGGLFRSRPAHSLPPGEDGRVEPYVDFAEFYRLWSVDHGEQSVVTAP
I'd appreciate it if you could supply IC50 values for the items below.
One number for each entry, in nM.

Please review the following examples before continuing.
>>> print(df.to_string())
                                   molecule                          test_system  value
0  CC(c1ccc(-c2cc(C(N)=O)c(NC(N)=O)s2)cc1)N1CCCCC1 (stereo not shown)  TAK1 (Homo sapiens, UniProt O43318)   50.1
1  NC(=O)Nc1cc(-c2ccc(CN3CCOCC3)cc2)sc1C(N)=O  TAK1 (Homo sapiens, UniProt O43318)    100
2  COC(C)(C)CNCc1ccc(-c2cc(NC(N)=O)c(C(N)=O)s2)cc1  TAK1 (Homo sapiens, UniProt O43318)   63.1

Please find the next molecule below.
Field IC50 (entry NC(=O)Nc1sc(-c2ccc(CN3CCOCC3)cc2)cc1C(N)=O ) reads 126

---

tested on: Jurkat; test: AlamarBlue proliferation assay, GI50; assay type: cell-based; details: Homo sapiens, 72 hours, Table 4, read-out: GI50 Jurkat T-ALL
VALUE TYPE: GI50 (µM)
Answers are plain numbers, in µM.

Batch: GI50 for all items listed.
1. CC(c1ccc(-c2cc(C(N)=O)c(NC(N)=O)s2)cc1)N1CCCCC1 (stereo not shown)
2. COC(C)(C)CNCc1ccc(-c2cc(NC(N)=O)c(C(N)=O)s2)cc1

1. 4.39
2. 10.1

Field GI50 (entry NC(=O)Nc1sc(-c2ccc(CN3CCOCC3)cc2)cc1C(N)=O ) reads 15.9

---

tested on: DOHH2; assay: AlamarBlue proliferation assay, GI50; type: cell-based; settings: Homo sapiens, DOHH-2, 72 hours, Table 4, read-out: GI50 DOHH2 FL
I'd appreciate it if you could supply GI50 values for the items below.
Please provide the amount together with its unit, number first.

Please review the following examples before continuing.
>>> df
                                   compound   value
0  NC(=O)Nc1cc(-c2ccc(CN3CCOCC3)cc2)sc1C(N)=O [Compound 3]  175 nM
1  CC(c1ccc(-c2cc(C(N)=O)c(NC(N)=O)s2)cc1)N1CCCCC1 (stereo not shown) [Compound 2]   14 nM
2  NC(=O)Nc1sc(-c2ccc(CN3CCOCC3)cc2)cc1C(N)=O [Compound 1]  127 nM

Please find the next compound below.
Measured GI50 (DOHH2), entry COC(C)(C)CNCc1ccc(-c2cc(NC(N)=O)c(C(N)=O)s2)cc1 [Compound 4] : 101 nM
